# Tested Target: T1, MepR WT (Staphylococcus aureus, UniProt Q5Y812 1-139)
# T1 sequence: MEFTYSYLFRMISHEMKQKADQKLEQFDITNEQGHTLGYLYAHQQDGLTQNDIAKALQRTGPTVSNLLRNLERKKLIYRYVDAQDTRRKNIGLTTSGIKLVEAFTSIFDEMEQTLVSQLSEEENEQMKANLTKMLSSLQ
# Protocol Details: ITC
Measurement Kind: pKd
pKd field: float, defined as -log10 of concentration (mol/L).

Problem: # get_value(readout='pKd', item= mepR operator, palindromic 26-mer (dsDNA) DNA 1: TATTTAGTTAGATATCTAACTAAATA DNA 2: TATTTAGTTAGATATCTAACTAAATA )
Result: 7.44

These data points were gathered from paper PMC3760248.
